Recorded pIC50 for molecules tested on 5-hydroxytryptamine receptor 1A (Rattus norvegicus, UniProt P19327), drawn from a number of studies.
Sequence (P19327 whole entry): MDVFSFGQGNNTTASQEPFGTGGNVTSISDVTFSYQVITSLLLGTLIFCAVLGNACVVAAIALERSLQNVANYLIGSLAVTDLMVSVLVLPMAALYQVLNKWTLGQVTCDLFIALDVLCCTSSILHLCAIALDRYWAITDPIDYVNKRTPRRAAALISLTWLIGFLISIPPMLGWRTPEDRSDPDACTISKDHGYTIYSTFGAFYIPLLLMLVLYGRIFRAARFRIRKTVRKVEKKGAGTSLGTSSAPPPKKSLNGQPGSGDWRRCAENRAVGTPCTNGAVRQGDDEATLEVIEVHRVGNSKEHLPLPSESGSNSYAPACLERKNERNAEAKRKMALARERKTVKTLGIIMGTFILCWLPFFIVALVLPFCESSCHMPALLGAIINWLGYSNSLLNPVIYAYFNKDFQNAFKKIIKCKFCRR
Friendly reminder that pIC50 comes from taking -log10 of the concentration in mol/L.

Molecule | pIC50
O=C1CSCN1CCCCN1CCN(c2ccc(Cl)cc2)CC1 | 5.89
O=C1N(CCCCN2CCN(c3csc4ccccc34)CC2)CSC12CCCCC2 | 6.99
O=C(NCCN1CCN(c2nsc3ccccc23)CC1)c1nsc2ccccc12 | 7.01
Cl.O=C(NCCCCN1CCN(c2nsc3ccccc23)CC1)c1c(O)ccc(Br)c1O | 6.92
COc1ccccc1N1CCN(CCCCN2C(=O)C(C)(C)SC2(C)C)CC1 | 7.74
COc1ccccc1OCCNCCCC(=O)N1CCCOc2c1cnn(C)c2=O | 7.75

Give recorded pIC50 with 5-hydroxytryptamine receptor 1A (Rattus norvegicus, UniProt P19327) for the following molecule: `COc1ccc(NC(=O)NCCc2c[nH]c3ccc(F)cc23)cc1N1CCN(C)CC1`
7.57

Give recorded pIC50 with 5-hydroxytryptamine receptor 1A (Rattus norvegicus, UniProt P19327) for the following molecule: `O=C(NCCN1CCN(c2cccc(Cl)c2)CC1)c1nsc2ccccc12`
7.29

Give recorded pIC50 with 5-hydroxytryptamine receptor 1A (Rattus norvegicus, UniProt P19327) for the following molecule: `COc1ccc2c(c1)C(CCCCN1CCN(c3ccccc3OC)CC1)=CCC2`
8.82

Give recorded pIC50 with 5-hydroxytryptamine receptor 1A (Rattus norvegicus, UniProt P19327) for the following molecule: `c1ccc(-c2nc(CN3CCN(c4ccccn4)CC3)cn2-c2ccccc2)cc1`
6.71

Give recorded pIC50 with 5-hydroxytryptamine receptor 1A (Rattus norvegicus, UniProt P19327) for the following molecule: `COc1ccc(NC(=O)N2CCC(c3c[nH]c4ccc(C(N)=O)cc34)CC2)cc1N1CCN(C)CC1`
7.77
